Biological target: T1, recombinant human IL-25 protein (human, UniProt Q9H293 33-177)
T1 construct: Bought (Acro, catalog no: IL5-H4221) for ELISA; also called hIL-25; IL-17E
T1 sequence: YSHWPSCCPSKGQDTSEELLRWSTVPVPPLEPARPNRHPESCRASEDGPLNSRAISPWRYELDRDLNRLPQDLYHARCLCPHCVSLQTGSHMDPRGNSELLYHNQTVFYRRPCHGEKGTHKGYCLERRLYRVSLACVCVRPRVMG
Test: BLI, Fab; species of IL-25 not stated, taken as human
PROPERTY NAME: kon

IL25Ab7 Fab (Fab, V domains shown, VH/VL assigned as for IL25Ab7) VH: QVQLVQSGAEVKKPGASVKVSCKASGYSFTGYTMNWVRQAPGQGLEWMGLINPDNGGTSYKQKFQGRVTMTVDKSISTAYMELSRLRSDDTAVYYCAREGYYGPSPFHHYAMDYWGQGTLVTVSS VL: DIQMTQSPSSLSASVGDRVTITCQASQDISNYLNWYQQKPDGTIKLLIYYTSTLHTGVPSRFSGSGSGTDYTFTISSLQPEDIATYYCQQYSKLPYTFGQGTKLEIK; 161000 M⁻¹ s⁻¹
